Could you please report measured inhibition at 20 µM for the items listed next?
# Assay target: KRas G12D/Q61H double mutant (Homo sapiens (Human), UniProt P01116, G12D/Q61H)
# Sequence (P01116-2 other isoform, or with tags, fused parts or gaps G12D/Q61H): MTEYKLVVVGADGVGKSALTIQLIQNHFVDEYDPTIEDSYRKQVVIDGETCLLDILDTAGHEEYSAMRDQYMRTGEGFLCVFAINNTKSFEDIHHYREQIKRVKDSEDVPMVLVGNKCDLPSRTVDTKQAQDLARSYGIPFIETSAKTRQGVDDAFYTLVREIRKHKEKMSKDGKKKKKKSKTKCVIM
# Test details: Ras GTP binding domain inhibition assay (labeled GTP)
# Protocol conditions: at 20 μM; read-out: KRas G12D Q61H % Inh.

Observe how each entry below is paired with its result.
# Compound, inhibition at 20 µM
data = [
    ("COc1ccccc1C1CN(C(=O)c2csc3c(O)nc(-c4ccccn4)nc23)CCN1 (stereo not drawn) [drawing 3661]", "25 to 50%"),
    ("O=C(c1csc2c(O)nc(-c3ccccn3)nc12)N1CCOC(c2cccc(Cl)c2)C1 (stereo not drawn) [drawing 3659]", "1 to 25%"),
    ("Cc1sc2c(O)nc(-c3ccccn3)nc2c1-c1ccncc1 [drawing 3816]", "51 to 75%"),
]

Batch of 4 compounds: report inhibition at 20 µM for each.
1. O=C(NCCc1ccncc1)c1csc2nc(-c3ccccn3)nc(N3CCOCC3)c12 [drawing 3668]
2. COc1cnc(CNC(=O)c2cc3nc(-c4ccccn4)nc(O)c3s2)[nH]c1=O [drawing 3839]
3. Nc1nc(O)c2sc(-c3cccc(C(=O)NC4CCNC4=O)c3)cc2n1 (stereo not drawn) [drawing 3860]
4. Nc1nc(-c2ccccn2)nc2scc(Br)c12 [drawing 3766]

1. 0%
2. 25 to 50%
3. 1 to 25%
4. 25 to 50%

Batch of 2 compounds: report inhibition at 20 µM for each.
1. Oc1nc(-c2ccccn2)nc2c(-c3ccsc3)csc12 [drawing 3747]
2. O=C(c1csc2c(O)nc(-c3ccccn3)nc12)N1CCNC(c2ccc(O)cc2)C1 (stereo not drawn) [drawing 3697]

1: 25 to 50%; 2: 76 to 100%

###

# Test system: TNFα production in RAW 264.7 macrophage cell line
# Test details: Mouse TNF alpha quantification assay (LPS-stimulated macrophages, ELISA)
# Type: cell-based
# Protocol conditions: RAW264.7, RAW 264.7 murine leukemia virus transformed macrophage cell lines, LPS stimulation, read-out: TNF-α % Inhibition at 30 μM
Readout label: inhibition at 30 µM

Observe how each entry below is paired with its result.
# Molecule, inhibition at 30 µM
measured = [
    ("COc1cnc(CNC(=O)c2c(C)sc3c(O)nc(-c4ccccn4)nc23)[nH]c1=O [drawing 2350]", "1 to 25%"),
    ("Cc1sc2c(O)nc(-c3ccccn3)nc2c1-c1cccnc1 [drawing 2306]", "0%"),
    ("O=C(c1csc2c(O)nc(-c3ccccn3)nc12)N1CCN(Cc2ccccc2)CC1 [drawing 2187]", "0%"),
    ("COC(=O)c1c(C)sc2c(N)nc(-c3ccccn3)nc12 [drawing 2335]", "1 to 25%"),
    ("Nc1nc(-c2ccccn2)nc2ccsc12 [drawing 2227]", "1 to 25%"),
    ("OC1CCCN(c2nc(-c3ccccn3)nc3scc(-c4ccccc4)c23)C1 (stereo not drawn) [drawing 2154]", "1 to 25%"),
    ("CC(C)C(=O)Nc1nc(CC(=O)Nc2nnc(-c3ccccn3)[nH]2)cs1 [drawing 1990]", "1 to 25%"),
    ("COCCNc1nc(-c2cn(C)cn2)nc2sc(-c3ccccc3)c(-c3ccccc3)c12 [drawing 2410]", "76 to 100%"),
]

Read the next record carefully.
Send back TNFα production in RAW 264.7 macrophage cell line inhibition at 30 µM of CC(C)COc1ccc(-c2csc3c(O)nc(-c4ccccn4)nc23)cn1 [drawing 2269] only.
51 to 75%

###

# Assay target: KRas G12D/Q61H double mutant (Homo sapiens (Human), UniProt P01116, G12D/Q61H)
# Test details: Ras GTP binding domain inhibition assay (labeled GTP)
# Protocol conditions: 20 μM compound; KRas G12D/Q61H double mutant; read-out: % Inhibition at 20 μM of K-Ras mutant and wild-type protein, KRas G12D Q61H
Readout label: inhibition at 20 µM

Observe how each entry below is paired with its result.
# Molecule, inhibition at 20 µM
measured = [
    ("Oc1nc(-c2ccccn2)nc2c(CC3CCNCC3)csc12 [drawing 3486]", "51 to 75%"),
    ("Cc1ccc(-c2csc3c(O)nc(-c4ccccn4)nc23)cc1 [drawing 3560]", "1 to 25%"),
    ("CCN(CC(=O)Nc1ccccc1OC)Cc1coc(-c2ccc(C)cc2C)n1", "25 to 50%"),
]

Batch of 6 molecules: report inhibition at 20 µM for each.
1. CCN(CC)S(=O)(=O)c1cccc(C(=O)N2N=C(c3ccccc3)CC2(O)C(F)(F)F)c1 (stereo not drawn)
2. Cc1cc(C)c(C)c(S(=O)(=O)N2CCN(C(C)C(=O)NCc3ccc4c(c3)OCO4)CC2)c1C (stereo not drawn)
3. COCCn1c(SC(C)c2nc(-c3cccnc3)no2)nc2cc(Cl)ccc2c1=O (stereo not drawn)
4. COC(=O)c1ccoc1COc1ccc(C(=O)c2ccc(F)cc2)cc1
5. COCC(C)Nc1nc(-c2ccccn2)nc(C(=O)NCCCc2c[nH]cn2)c1Oc1ccccc1 (stereo not drawn) [drawing 3550]
6. Oc1nc(-c2ccccn2)nc2c(C3CCCCC3)csc12 [drawing 3511]

1: 25 to 50%; 2: 1 to 25%; 3: 25 to 50%; 4: 51 to 75%; 5: 1 to 25%; 6: 25 to 50%

###

# Assay target: KRas G12D/Q61H double mutant (Homo sapiens (Human), UniProt P01116, G12D/Q61H)
# Test details: Ras GTP binding domain inhibition assay (labeled GTP)
# Protocol conditions: at 20 μM; read-out: KRas G12D Q61H % Inh.
Readout label: inhibition at 20 µM

# Compound, Meas value
data = [
    ("Cc1cnc(-c2ccccn2)nc1NC(=O)Cc1ccc2cnccc2c1 [drawing 3728]", "51 to 75%"),
    ("Cc1cnccc1-c1csc2c(O)nc(-c3ccccn3)nc12 [drawing 3760]", "51 to 75%"),
    ("CC1CN(c2ccccc2)CCN1C(=O)c1csc2c(O)nc(-c3ccccn3)nc12 (stereo not shown) [drawing 3650]", "51 to 75%"),
    ("O=C(NCCc1ccnc(O)n1)c1csc2nc(-c3ccccn3)nc(N3CCOCC3)c12 [drawing 3770]", "1 to 25%"),
    ("CNC(=O)c1ccc(-c2csc3c(O)nc(-c4ccccn4)nc23)cc1C [drawing 3757]", "25 to 50%"),
    ("O=C(CCc1nn[nH]n1)Nc1nc(-c2ccccn2)nc2sccc12 [drawing 3762]", "51 to 75%"),
]

Batch of 6 compounds: report inhibition at 20 µM for each.
1. N#Cc1ccc(COCC(=O)Nc2nc(-c3ccccn3)nc3sccc23)cc1 [drawing 3688]
2. CC(C)(O)c1ccc(-c2csc3c(O)nc(-c4ccccn4)nc23)c(F)c1 [drawing 3752]
3. COc1ccnc(-c2nc(O)c3ccsc3n2)c1 [drawing 3627]
4. CC(C)(C)c1ccc(-c2csc3c(O)nc(-c4ccccn4)nc23)cc1 [drawing 3719]
5. CN(C)Cc1ccc(F)c(-c2csc3c(O)nc(-c4ccccn4)nc23)c1 [drawing 3773]
6. O=C(COCc1ccncc1)Nc1nc(-c2ccccn2)nc2sccc12 [drawing 3700]

1. 25 to 50%
2. 51 to 75%
3. 51 to 75%
4. 51 to 75%
5. 25 to 50%
6. 51 to 75%

###

# Assay target: KRas G12D mutant protein (Homo sapiens (Human), UniProt P01116, G12D)
# Sequence (P01116-2 other isoform, or with tags, fused parts or gaps G12D): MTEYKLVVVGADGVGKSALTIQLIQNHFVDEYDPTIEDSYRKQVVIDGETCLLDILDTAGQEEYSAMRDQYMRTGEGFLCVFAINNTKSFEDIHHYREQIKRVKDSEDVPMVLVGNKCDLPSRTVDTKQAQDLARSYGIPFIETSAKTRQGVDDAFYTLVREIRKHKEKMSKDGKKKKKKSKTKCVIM
# Test details: Ras GTP binding domain inhibition assay (labeled GTP)
# Protocol conditions: at 20 μM; read-out: KRas G12D % Inh.
Could you please report measured inhibition at 20 µM for the items listed next?

# Compound, Assay target, inhibition at 20 µM
measured = [
    ("Cc1sc2c(O)nc(-c3nccn3C)nc2c1-c1ccccc1Cl [drawing 3920]", "KRas G12D mutant protein (Homo sapiens (Human), UniProt P01116, G12D)", "25 to 50%"),
    ("Cn1cnc(-c2nc(O)c3scc(-c4cccc(OC(F)(F)F)c4)c3n2)c1 [drawing 3924]", "KRas G12D mutant protein (Homo sapiens (Human), UniProt P01116, G12D)", "25 to 50%"),
    ("Cc1cc2nc(-c3ccccn3)nc(N)c2s1 [drawing 3708]", "KRas G12D mutant protein (Homo sapiens (Human), UniProt P01116, G12D)", "51 to 75%"),
    ("COCCNc1nc(-c2cccc(N)n2)nc2sc(-c3ccccc3)c(-c3ccccc3)c12 [drawing 3909]", "KRas G12D mutant protein (Homo sapiens (Human), UniProt P01116, G12D)", "0%"),
    ("Oc1nc(-c2ccccn2)nc2c(-c3ccccc3F)csc12 [drawing 3740]", "KRas G12D mutant protein (Homo sapiens (Human), UniProt P01116, G12D)", "51 to 75%"),
    ("COCCN(C)c1nc(-c2nccn2C)nc2sc(-c3ccccc3)c(-c3ccccc3)c12 [drawing 3884]", "KRas G12D mutant protein (Homo sapiens (Human), UniProt P01116, G12D)", "51 to 75%"),
    ("Oc1nc(-c2ccccn2)nc2c(-c3ccccc3C(F)F)csc12 [drawing 3755]", "KRas G12D mutant protein (Homo sapiens (Human), UniProt P01116, G12D)", "51 to 75%"),
    ("O=C(CCc1cncnc1)Nc1nc(-c2ccccn2)nc2sccc12 [drawing 3763]", "KRas G12D mutant protein (Homo sapiens (Human), UniProt P01116, G12D)", "51 to 75%"),
    ("COCC(C)Nc1nc(-c2nccn2C)nc2sc(-c3ccccc3)c(-c3ccccc3)c12 (stereo not shown) [drawing 3895]", "KRas G12D mutant protein (Homo sapiens (Human), UniProt P01116, G12D)", "1 to 25%"),
    ("COCCNc1nc(-c2nccn2C)nc2sc(-c3ccccc3)c(-c3ccccc3)c12 [drawing 3853]", "KRas G12D mutant protein (Homo sapiens (Human), UniProt P01116, G12D)", "76 to 100%"),
]

Batch of 8 compounds: report inhibition at 20 µM for each.
1. COc1c(O)nc(-c2ccccn2)nc1Oc1cccc(C(F)(F)F)c1 [drawing 3875]
2. Cc1nn(C(C)C)cc1-c1csc2c(O)nc(-c3ccccn3)nc12 [drawing 3825]
3. Cc1cnc(-c2ccccn2)nc1NC(=O)Cc1ccc2cnccc2c1 [drawing 3728]
4. CC(C)Oc1cnc(-c2ccccn2)nc1O [drawing 3800]
5. COCc1ccc(-c2csc3c(O)nc(-c4ccccn4)nc23)cc1F [drawing 3718]
6. OCC1(c2ccc(-c3nc(-c4ccccn4)nc(O)c3Oc3ccccc3)cc2)CC1 [drawing 3852]
7. Oc1nc(-c2ccccn2)nc2cc(-c3ccncc3)sc12 [drawing 3879]
8. Cn1ccnc1-c1nc(O)c2sc(-c3ccccc3)c(-c3cccc(C(F)(F)F)c3)c2n1 [drawing 3910]

1. 76 to 100%
2. 51 to 75%
3. 51 to 75%
4. 51 to 75%
5. 51 to 75%
6. 25 to 50%
7. 51 to 75%
8. 0%

For the compound Oc1nc(-c2ccccn2)nc2c(-c3cc(F)ccc3OC(F)F)csc12 [drawing 3732] , give its reported inhibition at 20 µM.
51 to 75%
